The reported numbers originate from patent US20120172293A1.

Target: human Y2 receptor (human) (UniProt P49146)
Sequence (P49146 whole entry): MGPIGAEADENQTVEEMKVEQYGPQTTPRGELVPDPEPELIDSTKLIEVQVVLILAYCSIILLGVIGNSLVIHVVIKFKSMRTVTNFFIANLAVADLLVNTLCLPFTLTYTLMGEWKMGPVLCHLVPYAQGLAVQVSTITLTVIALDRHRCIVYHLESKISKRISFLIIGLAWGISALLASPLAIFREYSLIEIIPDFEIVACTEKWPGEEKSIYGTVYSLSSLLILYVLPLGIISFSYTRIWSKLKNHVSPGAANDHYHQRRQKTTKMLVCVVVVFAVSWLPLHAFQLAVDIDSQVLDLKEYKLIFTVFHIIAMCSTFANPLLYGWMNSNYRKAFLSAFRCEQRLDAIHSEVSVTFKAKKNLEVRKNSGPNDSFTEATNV
Assay: RBA: displacement of [125I]-PYY from hY2R/CHO membranes
Non-standard residues stand in square brackets, D forms with d. *: point of attachment. 4‑guanidinomethylbenzoyl = N=C(N)NCc1ccc(C(=O)*)cc1; βHOAla = beta-homoalanine (β-HOAla), D- or L-form; hArg = N=C(N)NCCCC[C@H](N)C(=O)O; 4Pal = N[C@@H](Cc1ccncc1)C(=O)O; Cha = N[C@@H](CC1CCCCC1)C(=O)O; Iva = CC[C@](C)(N)C(=O)O; Aib = CC(C)(N)C(=O)O
measured-quantity: IC50 Ratio (IC50 compound/IC50 PYY(3-36))

Noted for Ac-S[βHOAla]R[4Pal][Cha][Aib]NK[Aib]TRQR[Cha]-NH2 (also: former peak isomer, β-HOAla configuration D or L not assigned) [Ac-[β-HOAla24, Pya(4)26, Cha27,36, Aib28,31, Lys30]-PYY(23-36) former peak] : its IC50 Ratio (IC50 compound/IC50 PYY(3-36)) reads 2.4

Noted for Ac-S[dP][Iva][4Pal][Cha][Aib]N[hArg][Aib]TRQR[Cha]-NH2 (SMILES CC[C@](C)(NC(=O)[C@H]1CCCN1C(=O)[C@H](CO)NC(C)=O)C(=O)N[C@@H](Cc1ccncc1)C(=O)N[C@@H](CC1CCCCC1)C(=O)NC(C)(C)C(=O)N[C@@H](CC(N)=O)C(=O)N[C@@H](CCCCNC(=N)N)C(=O)NC(C)(C)C(=O)N[C@H](C(=O)N[C@@H](CCCNC(=N)N)C(=O)N[C@@H](CCC(N)=O)C(=O)N[C@@H](CCCNC(=N)N)C(=O)N[C@@H](CC1CCCCC1)C(N)=O)[C@@H](C)O) [Ac-[D-Pro24, Iva25, Pya(4)26, Cha27,36, Aib28,31, Har30]-PYY(23-36)] : its IC50 Ratio (IC50 compound/IC50 PYY(3-36)) reads 0.65

Noted for {4‑guanidinomethylbenzoyl}-[Iva]H[Cha][Aib]NK[Aib]TRQR[Cha]-NH2 (SMILES CC[C@](C)(NC(=O)c1ccc(CNC(=N)N)cc1)C(=O)N[C@@H](Cc1c[nH]cn1)C(=O)N[C@@H](CC1CCCCC1)C(=O)NC(C)(C)C(=O)N[C@@H](CC(N)=O)C(=O)N[C@@H](CCCCN)C(=O)NC(C)(C)C(=O)N[C@H](C(=O)N[C@@H](CCCNC(=N)N)C(=O)N[C@@H](CCC(N)=O)C(=O)N[C@@H](CCCNC(=N)N)C(=O)N[C@@H](CC1CCCCC1)C(N)=O)[C@@H](C)O) [4-Guanidinomethylbenzoyl-[Iva25, Cha27,36, Aib28,31, Lys30]-PYY(25-36)] : its IC50 Ratio (IC50 compound/IC50 PYY(3-36)) reads 6.3
